Values compiled from patent US20260130851A1.

experiment: Equilibrium solubility of Plinabulin in propylene glycol-D5W diluents (HPLC); format: physicochemical; conditions: propylene glycol-D5W diluent, 25 °C, saline or isotonic, thermodynamic from solid, Test Sample 3 (1:50) dilution level, 120 h, read-out: Test Concentration (equilibrium solubility)
MEASUREMENT_NAME: solubility thermodynamic at 120 h (µg/mL)
Give the number; µg/mL is assumed, so skip it.

query: Reported solubility thermodynamic at 120 h for "CC(C)(C)c1[nH]cnc1/C=c1\[nH]c(=O)/c(=C/c2ccccc2)[nH]c1=O" : what is it?
result: 0.135

* * *

assay: Equilibrium solubility of Plinabulin in propylene glycol-D5W diluents (HPLC); format: physicochemical; details: propylene glycol-D5W diluent, 25 °C, saline or isotonic, thermodynamic from solid, Test Sample 3 (49 h), Diluent 3 (about 2.4 g propylene glycol + 200 ml D5W, 1:50), 100 rpm, read-out: Control Group - Diluent Test Concentration
MEASUREMENT_NAME: solubility thermodynamic at 49 h
Report as: number unit

query: Reported solubility thermodynamic at 49 h for "CC(C)(C)c1[nH]cnc1/C=c1\[nH]c(=O)/c(=C/c2ccccc2)[nH]c1=O" : what is it?
result: 0.117 µg/mL
